Reference source for all entries: patent US20230087128A1

Parameter Kd: see the listing below.
Biological target: T1, Activin B (UniProt P09529 293-407)
T1 sequence (looked up): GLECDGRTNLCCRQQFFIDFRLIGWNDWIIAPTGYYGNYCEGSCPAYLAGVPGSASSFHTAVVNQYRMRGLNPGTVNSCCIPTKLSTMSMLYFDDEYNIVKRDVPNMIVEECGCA
Test: SPR (Biacore 3000), Fc fusion captured, ligand in solution
Give just the number in pM; leave the unit off.

Some solved cases for reference:
>>> value("ActRIIB (SEQ ID NO: 17)-Fc (Fc fusion, not shown: a dimerising Fc or GST, Recombinant wild-type extracellular ActRIIB-Fc; also called ActRIIB-Fc) GRGEAETRECIYYNANWELERTNQSGLERCEGEQDKRLHCYASWRNSSGTIELVKKGCWLDDFNCYDRQECVATEENPQVYFCCCEGNFCNERFTHLPEAGGPEVTYEPPPTAPT")
23
>>> value("ActRIIBΔ9 variant (SEQ ID NO: 3)-Fc (Fc fusion, not shown: a dimerising Fc or GST, Engineered variant of the human ActRIIB extracellular portion) GRGEAETRECIYYNANWELDRTNQSGLERCEGEQDKRLHCYASWRNSSGTIELVKKGCWLDDINCYDRQECVATKENPQVYFCCCEGNFCNERFTHLPEAGGPEVTYEPPPTAPT")
400000

Inquiry: Read off the recorded Kd for ActRIIB 2.12 variant (SEQ ID NO: 15)-Fc (Fc fusion, not shown: a dimerising Fc or GST, Engineered variant of the human ActRIIB extracellular portion; recombinant protein) GRGEAETRECLYYNANWELERTNQSGVERCEGEKDKRLHCYASWRNSSGSLEIVKKGCWLDDFNCYDRDTCVATKENPQVYFCCCEGNMCNERFTHLPEAGGPEVTYEPPPTAPT
Reply text: 160
